In this section we review reported kon values for a set of binders.
test target: T1, purified human activated C1s protein, two-chain form (Homo sapiens, UniProt P09871 16-688)
T1 construct: Also used here for C1s acting in human serum assays; also called human C1s; active C1s
T1 sequence: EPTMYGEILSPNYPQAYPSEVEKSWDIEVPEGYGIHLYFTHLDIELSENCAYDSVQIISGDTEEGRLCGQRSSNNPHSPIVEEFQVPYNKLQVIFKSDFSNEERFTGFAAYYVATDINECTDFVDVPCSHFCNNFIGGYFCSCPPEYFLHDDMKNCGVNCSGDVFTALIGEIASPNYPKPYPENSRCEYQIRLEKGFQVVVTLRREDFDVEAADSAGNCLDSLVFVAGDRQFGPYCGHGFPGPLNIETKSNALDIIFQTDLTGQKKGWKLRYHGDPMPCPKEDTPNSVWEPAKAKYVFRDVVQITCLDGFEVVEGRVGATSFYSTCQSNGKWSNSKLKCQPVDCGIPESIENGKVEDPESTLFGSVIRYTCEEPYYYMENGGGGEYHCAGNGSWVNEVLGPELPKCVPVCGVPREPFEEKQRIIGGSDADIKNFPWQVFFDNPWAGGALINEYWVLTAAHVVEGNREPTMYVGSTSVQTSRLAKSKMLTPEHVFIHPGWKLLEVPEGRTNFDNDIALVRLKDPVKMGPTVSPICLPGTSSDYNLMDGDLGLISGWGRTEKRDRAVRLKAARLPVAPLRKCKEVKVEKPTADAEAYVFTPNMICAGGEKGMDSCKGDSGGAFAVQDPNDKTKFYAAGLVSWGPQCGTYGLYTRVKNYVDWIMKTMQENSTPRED
method notes: kinetic binding measurement, method not stated; Table 9, activated C1s

{"columns": ["binder", "kon, M⁻¹ s⁻¹"],
 "data": [
  ["VH3/Vk3 (antibody, V domains shown, member of group m7; also called VH3/Vκ3; VH variant 3 + Vk variant 3) VH: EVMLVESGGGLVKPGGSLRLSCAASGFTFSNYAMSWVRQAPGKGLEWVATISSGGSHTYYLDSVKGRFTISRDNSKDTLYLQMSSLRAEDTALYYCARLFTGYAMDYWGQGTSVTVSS VL: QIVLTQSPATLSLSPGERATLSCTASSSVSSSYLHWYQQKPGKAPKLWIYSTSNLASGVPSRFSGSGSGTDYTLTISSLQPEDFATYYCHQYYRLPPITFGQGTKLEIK", "1.08e+06"],
  ["VH4/Vk2 (antibody, V domains shown, member of group m7; also called VH4/Vκ2; VH variant 4 + Vk variant 2) VH: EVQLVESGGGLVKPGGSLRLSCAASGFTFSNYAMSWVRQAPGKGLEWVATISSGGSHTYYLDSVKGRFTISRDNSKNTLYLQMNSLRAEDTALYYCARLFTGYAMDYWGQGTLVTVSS VL: QIVLTQSPATLSLSPGERATMSCTASSSVSSSYLHWYQQKPGKAPKLWIYSTSNLASGVPSRFSGSGSGTDYTLTISSLQPEDFATYYCHQYYRLPPITFGQGTKLEIK", "1e+06"],
  ["VH4/Vk1 (antibody, V domains shown, member of group m7; also called VH4/Vκ1; VH variant 4 + Vk variant 1) VH: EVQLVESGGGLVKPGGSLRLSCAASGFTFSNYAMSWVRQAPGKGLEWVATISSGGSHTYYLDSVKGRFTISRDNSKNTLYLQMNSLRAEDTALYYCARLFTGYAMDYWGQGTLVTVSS VL: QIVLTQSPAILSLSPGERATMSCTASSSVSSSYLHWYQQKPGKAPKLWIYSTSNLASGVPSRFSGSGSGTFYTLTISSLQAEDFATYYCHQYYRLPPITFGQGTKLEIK", "1.19e+06"]
]}
